TEST METHOD NOTES: Selectivity for Trypanosoma cruzi dihydrofolate reductase compared to human dihydrofolate reductase
Some compounds, each annotated with its measured Selectivity.
OBSERVABLE: Selectivity

• CCOC(=O)CCCCN(Cc1cnc2nc(N)nc(N)c2n1)c1ccc(C(=O)NC(CCC(=O)OCC)C(=O)OCC)cc1 (centres undefined) = 9.9
• Nc1nc(N)c2nc(CN(CCCCC(=O)O)c3ccc(C(=O)NC(CCC(=O)O)C(=O)O)cc3)cnc2n1 (centres undefined) = 11.1
• CCOC(=O)CCCCCN(Cc1cnc2nc(N)nc(N)c2n1)c1ccc(C(=O)NC(CCC(=O)OCC)C(=O)OCC)cc1 (centres undefined) = 8.71
• Nc1nc(N)c2nc(CN(CCCCCC(=O)O)c3ccc(C(=O)NC(CCC(=O)O)C(=O)O)cc3)cnc2n1 (centres undefined) = 8.9

====

TARGET OR SYSTEM: Dihydrofolate reductase (Homo sapiens)
Sequence (P00374 whole entry): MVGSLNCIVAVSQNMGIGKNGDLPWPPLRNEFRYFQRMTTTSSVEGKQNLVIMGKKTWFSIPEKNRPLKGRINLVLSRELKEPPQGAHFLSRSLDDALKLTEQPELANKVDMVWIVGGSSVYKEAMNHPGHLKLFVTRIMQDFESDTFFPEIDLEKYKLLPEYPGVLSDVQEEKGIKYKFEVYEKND
OBSERVABLE: Ki (nM)

• CCOC(=O)CCCCCN(Cc1cnc2nc(N)nc(N)c2n1)c1ccc(C(=O)NC(CCC(=O)OCC)C(=O)OCC)cc1 (configuration not stated) = 485
• CCOC(=O)CCCCN(Cc1cnc2nc(N)nc(N)c2n1)c1ccc(C(=O)NC(CCC(=O)OCC)C(=O)OCC)cc1 (configuration not stated) = 453
